Could you please report measured combination Emax for the items listed next?
System: ESS-1 (Other Solid Carcinomas)
assay_explanation: combination Emax (second highest fraction inhibited in the dose matrix, 72 h); higher = more inhibition; extreme values may be limits of the assay
Enter the number alone.

Reported combination Emax of CN(CCO)CC[C@H](CSc1ccccc1)Nc1ccc(S(=O)(=O)NC(=O)c2ccc(N3CCC([C@@H](O)c4ccccc4-c4ccc(Cl)cc4)CC3)cc2)cc1S(=O)(=O)C(F)(F)F [AZD4320] + C[C@@H](Nc1cc(F)cc(F)c1)c1cc(C(=O)N(C)C)cc2c(=O)cc(N3CCOCC3)oc12 [AZD8186] (first compound max 1 µM, 7x7, partner max 3 µM) : 0.825

Form field combination Emax, entry C=CCn1c(=O)c2cnc(Nc3ccc(N4CCN(C)CC4)cc3)nc2n1-c1cccc(C(C)(C)O)n1 [AZD1775] + C1CN(CCC1(C(=O)N[C@@H](CCO)C2=CC=C(C=C2)Cl)N)C3=NC=NC4=C3C=CN4 [Capivasertib] (first compound max 3 µM, partner max 3 µM) : 0.949

The recorded combination Emax for entry Cc1cc2ncnn2cc1Nc1ncc2c(n1)n(C1CCOCC1)c(=O)n2C [AZD7648] + CCN(CCO)CCCOc1ccc2c(Nc3cc(CC(=O)Nc4cccc(F)c4)[nH]n3)ncnc2c1 [AZD2811] (first compound max 10 µM, 7x7, partner max 1 µM) equals 0.665

GET /value?item= CC(=O)Nc1cccc(-n2c(=O)n(C3CC3)c(=O)c3c(Nc4ccc(I)cc4F)n(C)c(=O)c(C)c32)c1 [Trametinib] + Cc1nc(-c2cn3c(n2)-c2ccc(-c4cnn(C(C)(C)C(N)=O)c4)cc2OCC3)n(C(C)C)n1 [Taselisib] (first compound max 1 µM, 7x7, partner max 10 µM) &field=combination Emax returns 0.88

response.value for COc1nnc2ccc(N3CCC(c4ccc(OCCN5CCN(C)C(=O)[C@H]5C)cc4)CC3)nn12 [AZD5153] + Cc1c2c(nn1C)CSCc1cc(n(C)n1)CSc1cc(c3ccccc3c1)OCCCc1c(C(=O)O)n(C)c3c-2c(Cl)ccc13 [AZD5991] (first compound max 1 µM, 7x7, partner max 1 µM) (field: combination Emax) = 0.898

What the record says about C[C@@H](Oc1cc(-c2cnn(C3CCNCC3)c2)cnc1N)c1c(Cl)ccc(F)c1Cl [Crizotinib] + Cn1cnc2c(F)c(Nc3ccc(Br)cc3Cl)c(C(=O)NOCCO)cc21 [Selumetinib] (first compound max 10 µM, 7x7, partner max 10 µM) : combination Emax is 0.773

Data point: CN(C)CCCOc1ccc(-c2ccc3ncc4c(c3c2)n(C2CCOCC2)c(=O)n4C)cn1 [AZD0156] + O=C(c1cc(Cc2n[nH]c(=O)c3ccccc23)ccc1F)N1CCN(C(=O)C2CC2)CC1 [Olaparib] (first compound max 3 µM, partner max 3 µM) ; combination Emax = 0.489

---

Tested on: ALL-PO (B-Lymphoblastic Leukemia)
assay_explanation: combination Emax (second highest fraction inhibited in the dose matrix, 72 h); higher = more inhibition; extreme values may be limits of the assay
experimental_endpoint: combination Emax

Bench note, ALL-PO (B-Lymphoblastic Leukemia): entry COc1cc2c(cc1OCCCCCOc1cc3c(cc1OC)C(=O)N1C=C(C)C[C@H]1C=N3)N=C[C@@H]1CC(C)=CN1C2=O [SG3199] + O=C(c1cc(Cc2n[nH]c(=O)c3ccccc23)ccc1F)N1CCN(C(=O)C2CC2)CC1 [Olaparib] (first compound max 0.001 µM, 7x7, partner max 10 µM) , its combination Emax = 0.646

So the reported combination Emax for NC1(C(=O)N[C@@H](CCO)c2ccc(Cl)cc2)CCN(c2ncnc3[nH]ccc23)CC1 [Capivasertib] + CCN(CCO)CCCOc1ccc2c(Nc3cc(CC(=O)Nc4cccc(F)c4)[nH]n3)ncnc2c1 [AZD2811] (first compound max 10 µM, 7x7, partner max 1 µM) , on ALL-PO (B-Lymphoblastic Leukemia), turned out to be 1

The reported numbers originate from the supplement of paper PMC11061612.
